Assay: STAT1 signaling activators, primary screen, cell-based, HTS, luciferase reporter (AID 932);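 note: raw ratio to IFN-gamma control signal so 100% means no change and 0% no light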
Details: NIH 3T3 STAT1-luciferase reporter, IFN-gamma, luminescence; at 5.5 µM; hits give high values; 100% = IFN-gamma alone, no compound
In all, about 200,000 compounds went through this assay and about 5,100 (2.5%) were called active. This excerpt belongs to a sample that is enriched for actives.
ASSAY_ENDPOINT: activation (% of control) (%)
Numbers only; they are read as %.

[
  {
    "SMILES": "O=C(Nc1ccc(NC(=O)c2cccs2)cn1)c1ccco1",
    "UNITS_OF_MEASURE": "%",
    "activation (% of control)": 142
  },
  {
    "SMILES": "O=[N+]([O-])c1ccc(NCCCO)c(C(F)(F)F)c1",
    "UNITS_OF_MEASURE": "%",
    "activation (% of control)": 105
  },
  {
    "SMILES": "Cc1cccc(NC(=O)Nc2cccc(Oc3c(F)c(F)c(F)c(F)c3F)c2)c1",
    "UNITS_OF_MEASURE": "%",
    "activation (% of control)": 101
  },
  {
    "SMILES": "O=C(Nc1ccc(Sc2ccc(Br)cc2)cc1)c1ccco1",
    "UNITS_OF_MEASURE": "%",
    "activation (% of control)": 93.9
  },
  {
    "SMILES": "COc1cccc(C(=O)Nc2ccc(NC(=O)c3ccco3)cn2)c1",
    "UNITS_OF_MEASURE": "%",
    "activation (% of control)": 108
  }
]

Q: I am curious: what activation (% of control) value has been reported for O=C(O)Cc1ccc(NC(=O)c2cccs2)cc1 ?
Result: 89.8

----------
Experiment: STAT1 signaling activators, primary screen, cell-based, HTS, luciferase reporter (AID 932);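 note: raw ratio to IFN-gamma control signal so 100% means no change and 0% no light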
Details: NIH 3T3 STAT1-luciferase reporter, IFN-gamma, luminescence; at 5.5 µM; hits give high values; 100% = IFN-gamma alone, no compound
Screen size: about 200,000 compounds; about 5,100 (2.5%) were called active. This is one part of a sample in which actives are shown more often than they occur.
ASSAY_ENDPOINT: activation (% of control) (%)
Numbers only; they are read as %.

[
  {
    "MOLECULE": "Cc1ccc(NC(=O)CNCc2ccccn2)cc1S(=O)(=O)N(C)C",
    "activation (% of control), %": 97.7
  },
  {
    "MOLECULE": "CCc1cc2c(=O)c(-c3ccc(F)cc3)c(C(F)(F)F)oc2cc1OCC(=O)O",
    "activation (% of control), %": 97.7
  },
  {
    "MOLECULE": "Cc1ccc(C(=O)Nc2ccc(C)c(S(=O)(=O)N(C)C)c2)s1",
    "activation (% of control), %": 141
  },
  {
    "MOLECULE": "CCOn1c(=O)c(=O)n(O)c2ccccc21",
    "activation (% of control), %": 95.6
  },
  {
    "MOLECULE": "Cc1ccc(NC(=O)c2sccc2C)cc1[N+](=O)[O-]",
    "activation (% of control), %": 138
  },
  {
    "MOLECULE": "Cn1c(=O)c2c(nc(N3CCCCCC3)n2CC(=O)c2ccc(Br)cc2)n(C)c1=O",
    "activation (% of control), %": 94.8
  },
  {
    "MOLECULE": "CCCCN(CC)C(=S)Nc1ccc2nc3n(c(=O)c2c1)CCCCC3",
    "activation (% of control), %": 91
  },
  {
    "MOLECULE": "COc1ccc(-c2nn(-c3ccccc3)cc2/C=C\\C(=O)N2CCOCC2)cc1[N+](=O)[O-]",
    "activation (% of control), %": 102
  },
  {
    "MOLECULE": "Clc1cccc(CN2COc3c(cc(Cl)c4cccnc34)C2)c1",
    "activation (% of control), %": 94.3
  },
  {
    "MOLECULE": "O=C(Cn1ncc(N2CCCC2)c(Br)c1=O)c1ccc(Cl)cc1",
    "activation (% of control), %": 130
  }
]

Q: I am curious: what activation (% of control) value has been reported for CC(=O)COc1ccc2c(-c3ccccc3)cc(=O)oc2c1 ?
Result: 109

----------
Assay: STAT1 signaling activators, primary screen, cell-based, HTS, luciferase reporter (AID 932);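 note: raw ratio to IFN-gamma control signal so 100% means no change and 0% no light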
Conditions: NIH 3T3 STAT1-luciferase reporter, IFN-gamma, luminescence; at 5.5 µM; 100% = IFN-gamma alone, no compound
Hit rate of the full screen: of about 200,000 compounds, about 5,100 (2.5%) were called active.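 The calls were made as follows: active = activation above the screen-wide mean activation plus 3 SD (cut at about 130% in these data); inactive = the rest.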 The sample holds actives, similar compounds and a random draw of the others, so the mix is not that of the screen.
Bench note: report the call from True (active), False (inactive)

Worked set:
[
  {
    "MOLECULE": "Cc1nc(N2CCOCC2)nc2c1CCCC2",
    "CLASS": "False"
  },
  {
    "MOLECULE": "O=C(Nc1nc2ccccc2s1)c1ccc2c(c1)OCO2",
    "CLASS": "True"
  },
  {
    "MOLECULE": "CCN(CC)CC(=O)Nc1sc2c(c1C(=O)c1ccccc1C)CCC2",
    "CLASS": "False"
  }
]

Q: // outcome(item) with item = COc1ccc(S(=O)(=O)NCC2CCCN(C(=O)c3occc3C)C2)cc1 (centres undefined)
Result: False

----------
Each record here notes measured activation (% of control).
Assay: STAT1 signaling activators, primary screen, cell-based, HTS, luciferase reporter (AID 932);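 note: raw ratio to IFN-gamma control signal so 100% means no change and 0% no light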
Conditions: NIH 3T3 STAT1-luciferase reporter, IFN-gamma, luminescence; at 5.5 µM; hits give high values; 100% = IFN-gamma alone, no compound
Hit rate of the full screen: of about 200,000 compounds, about 5,100 (2.5%) were called active. What follows is part of a selection rich in actives, with near analogues and random picks from the rest.
Numbers only; they are read as %.

[
  {
    "COMPOUND": "CC(=O)NCC(=O)N1CCCC(C(=O)c2ccc3c4c(cccc24)CC3)C1 (configuration not stated)",
    "activation (% of control) / %": 99.2
  },
  {
    "COMPOUND": "Clc1ccc(Nc2nc(-c3cccs3)cs2)nc1",
    "activation (% of control) / %": 196
  },
  {
    "COMPOUND": "Cc1cc2nc(-c3ccc(NC(=O)c4cccnc4)cc3)oc2cc1C",
    "activation (% of control) / %": 137
  },
  {
    "COMPOUND": "O=C1NC(c2ccc(-c3ccccc3[N+](=O)[O-])o2)C(C(=O)c2ccc(Cl)cc2)C(O)(C(F)(F)F)N1 (configuration not stated)",
    "activation (% of control) / %": 102
  },
  {
    "COMPOUND": "O=C(O)CCCCCNc1ncnc2ccc(Br)cc12",
    "activation (% of control) / %": 104
  },
  {
    "COMPOUND": "O=C(c1ccc(C(F)(F)F)cc1)C1CCCN(C(=O)c2csnn2)C1 (configuration not stated)",
    "activation (% of control) / %": 87.3
  },
  {
    "COMPOUND": "COc1ccc(C(=O)C2CCCN(C(=O)c3cc4nc(C)cc(C)n4n3)C2)cc1F (configuration not stated)",
    "activation (% of control) / %": 95.3
  },
  {
    "COMPOUND": "COc1ccc(S(=O)(=O)N2CCN(C(=O)c3cc(C)oc3C)CC2)cc1",
    "activation (% of control) / %": 90.8
  }
]

Q: I am curious: what activation (% of control) value has been reported for CCOC(=O)c1c(C)n(C)c2ccc(OC)c(NS(=O)(=O)CC)c12 ?
Result: 111

Q: I am curious: what activation (% of control) value has been reported for CC1CN/C(=C\C(=O)c2ccc(Br)cc2)C(=O)N1 (configuration not stated) ?
Result: 172

Q: I am curious: what activation (% of control) value has been reported for Cc1ccc(-c2csc(NC(=O)c3cccs3)n2)cc1 ?
Result: 123

Q: I am curious: what activation (% of control) value has been reported for CC(OC(=O)c1ccc2ccccc2n1)C(=O)c1ccccc1 (configuration not stated) ?
Result: 138

----------
Test: STAT1 signaling activators, primary screen, cell-based, HTS, luciferase reporter (AID 932);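 note: raw ratio to IFN-gamma control signal so 100% means no change and 0% no light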
Conditions: NIH 3T3 STAT1-luciferase reporter, IFN-gamma, luminescence; at 5.5 µM; hits give high values; 100% = IFN-gamma alone, no compound
In all, about 200,000 compounds went through this assay and about 5,100 (2.5%) were called active. The sample holds actives, similar compounds and a random draw of the others, so the mix is not that of the screen.
Each record here notes measured activation (% of control).
Numbers only; they are read as %.

Q: I am curious: what activation (% of control) value has been reported for COc1cccc(C(=O)Nc2cc3c(cc2Br)OCCCO3)c1 ?
Result: 141

Q: I am curious: what activation (% of control) value has been reported for O=C(CC1CCCCC1)NCc1ccco1 ?
Result: 108

Q: I am curious: what activation (% of control) value has been reported for Cc1ccc(S(=O)(=O)N2CCOCC2)cc1C(=O)NC(=S)N(Cc1ccccc1)C(C)C ?
Result: 102

Q: I am curious: what activation (% of control) value has been reported for Cc1occc1C(=O)N1CCCc2ccccc21 ?
Result: 104

Q: I am curious: what activation (% of control) value has been reported for COc1ccc(-c2cn3ccsc3n2)cc1 ?
Result: 135

Q: I am curious: what activation (% of control) value has been reported for COc1ccc(-n2ncc3c(N4CCc5ccccc54)ncnc32)cc1 ?
Result: 137

Q: I am curious: what activation (% of control) value has been reported for COc1cccc(C(=O)NNC(=O)c2ccccc2Br)c1 ?
Result: 98.2

Q: I am curious: what activation (% of control) value has been reported for CCc1ccc(/C=C2\SC(N3CCOCC3)=NC2=O)cc1 ?
Result: 103

Q: I am curious: what activation (% of control) value has been reported for Cc1ccccc1Nc1nc(N)nc(CSc2nnc3ccccn23)n1 ?
Result: 120

Q: I am curious: what activation (% of control) value has been reported for c1ccc(CSc2nnc(-c3ccco3)c(-c3ccco3)n2)cc1 ?
Result: 97.8

Q: I am curious: what activation (% of control) value has been reported for Cc1ccccc1Nc1nc(N)nc(CSc2ccccc2)n1 ?
Result: 183

Q: I am curious: what activation (% of control) value has been reported for O=C(c1cccc(C(=O)N2CCc3ccccc32)n1)N1CCc2ccccc21 ?
Result: 95.1

Q: I am curious: what activation (% of control) value has been reported for CCNC(=O)c1ccc(OCC(=O)Nc2ccc(F)cc2)c(OC)c1 ?
Result: 105

Q: I am curious: what activation (% of control) value has been reported for Cn1c(=N)n(CC(O)c2cccs2)c2ccccc21 (stereo not drawn) ?
Result: 95.5

Ref: PubChem BioAssay AID932
